Attribution: ChEMBL document CHEMBL5104192

molecular target: Melanocyte-stimulating hormone receptor (Homo sapiens, UniProt Q01726); experiment: Agonist activity at human MC1R expressed in HEK2936E cells assessed as cAMP production in presence of IBMX by time resolved fluorescence assay; format: functional, cell-based; settings: read-out: pEC50 (converted)
Sequence (Q01726 whole entry): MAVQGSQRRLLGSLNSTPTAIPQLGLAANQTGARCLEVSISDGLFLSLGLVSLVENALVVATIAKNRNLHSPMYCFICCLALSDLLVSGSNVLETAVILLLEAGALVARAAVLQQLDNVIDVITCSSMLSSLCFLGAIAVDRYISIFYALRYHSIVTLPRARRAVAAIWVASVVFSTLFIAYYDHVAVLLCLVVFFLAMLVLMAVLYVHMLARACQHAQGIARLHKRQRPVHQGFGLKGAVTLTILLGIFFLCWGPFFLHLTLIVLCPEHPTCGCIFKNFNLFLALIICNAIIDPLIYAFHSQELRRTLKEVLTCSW
*1 amine or outer side, *2 acyl side, *3 side chain or, on linkers, in order; H or OH if unused. Where a SMILES comes first, the peptide text is derived from it. Bridges are numbered along the chain shown (N, C = ends). [ ]: non-standard residue; d: D form. X4 = C#CCCCCN1C(=O)C([*:1])=C([*:2])C1=O; pXylylene = c1cc(C[*:2])ccc1C[*:1]; NMeR = CN[C@@H](CCCNC(=N)N)C(=O)O; X1 = n1nc([*:2])nnc1[*:1]; Nle = CCCC[C@H](N)C(=O)O
Known EC50 of a selection of compounds
All answers are understood in nM, so give the number only.

Reference set, count: 4
CC[C@H](C)[C@@H]1NC(=O)[C@@H]2CCCN2C(=O)[C@H](Cc2c[nH]c3ccccc23)NC(=O)[C@H](CCCNC(=N)N)N(C)C(=O)[C@H](Cc2ccccc2)NC(=O)[C@H](Cc2cnc[nH]2)NC(=O)[C@H]([C@@H](C)O)NC(=O)[C@@H](NC(C)=O)CSCc2ccc(cc2)CSC[C@@H](C(N)=O)NC1=O (Ac-CTHF[NMeR]WPIC-NH2; linker 1-9 via pXylylene) | 5.13
CC[C@H](C)[C@@H]1NC(=O)[C@@H]2CCCN2C(=O)[C@H](Cc2c[nH]c3ccccc23)NC(=O)[C@H](CCCNC(=N)N)N(C)C(=O)[C@H](Cc2ccccc2)NC(=O)[C@H](Cc2cnc[nH]2)NC(=O)[C@H]([C@@H](C)O)NC(=O)[C@@H](NC(C)=O)CSSC[C@@H](C(N)=O)NC1=O (Ac-CTHF[NMeR]WPIC-NH2; disulfide 1-9) | 8.71
CCCC[C@@H]1NC(=O)[C@@H]2CSC/C(=N/OCC(=O)NCCOCCOCCOCCN=[N+]=[N-])CSC[C@H](NC(=O)[C@H](CCCNC(=N)N)NC(=O)[C@H](CC(=O)O)NC(=O)[C@H](Cc3c[nH]c4ccccc34)NC(=O)[C@H](CCCNC(=N)N)NC(=O)[C@H](Cc3ccccc3)NC(=O)[C@H](Cc3cnc[nH]3)NC(=O)CNC1=O)C(=O)N[C@@H](Cc1cnc[nH]1)C(=O)N[C@@H](Cc1ccccc1)C(=O)N[C@@H](CCCNC(=N)N)C(=O)N[C@@H](Cc1c[nH]c3ccccc13)C(=O)N[C@@H](CCCNC(=N)N)C(=O)N2 | 0.0468
C#CCCCCN1C(=O)C2=C(SC[C@@H]3NC(=O)[C@H](CCCNC(=N)N)NC(=O)[C@H](CC(=O)O)NC(=O)[C@H](Cc4c[nH]c5ccccc45)NC(=O)[C@H](CCCNC(=N)N)NC(=O)[C@H](Cc4ccccc4)NC(=O)[C@H](Cc4cnc[nH]4)NC(=O)CNC(=O)[C@H](CCCC)NC(=O)[C@H](CS2)NC(=O)[C@H](CCCNC(=N)N)NC(=O)[C@H](Cc2c[nH]c4ccccc24)NC(=O)[C@H](CCCNC(=N)N)NC(=O)[C@H](Cc2ccccc2)NC(=O)[C@H](Cc2cnc[nH]2)NC3=O)C1=O (cyclo(CHFRWRC[Nle]GHFRWDR); linker 1-7 via X4) | 0.0813

Lab note: next compound to report on.
Qu. Find the recorded EC50 belonging to CCCC[C@@H]1NC(=O)[C@@H]2CSc3nnc(nn3)SC[C@H](NC(=O)[C@H](CCCNC(=N)N)NC(=O)[C@H](CC(=O)O)NC(=O)[C@H](Cc3c[nH]c4ccccc34)NC(=O)[C@H](CCCNC(=N)N)NC(=O)[C@H](Cc3ccccc3)NC(=O)[C@H](Cc3cnc[nH]3)NC(=O)CNC1=O)C(=O)N[C@@H](Cc1cnc[nH]1)C(=O)N[C@@H](Cc1ccccc1)C(=O)N[C@@H](CCCNC(=N)N)C(=O)N[C@@H](Cc1c[nH]c3ccccc13)C(=O)N[C@@H](CCCNC(=N)N)C(=O)N2 (cyclo(CHFRWRC[Nle]GHFRWDR); linker 1-7 via X1) and report it.
Ans. 0.0447
